Source listed as PubChem BioAssay.

- assay protocol: basal MM1S mitochondrial membrane potential changes, profiling panel, cell-based, JC-1 fluorescence, 24 h, 100 nL compound (AID 1170); further: test concentration not given here
- measurement setup: higher = more signal
Binary classification by z-score, with 0.1 as an inclusive lower bound for Yes; all other cases are No.

Test whether the compound C=C(C(=O)CC[C@@H](OC(C)=O)c1ccccc1OCCO)C(C)C records z-score of 0.1 or higher.
No

---
Check this compound for z-score at or above 0.1: COC(=O)C1=CC(c2ccc(CO)cc2)=CC(C2CC2)N(C)C=C1C(=O)OC (stereo unspecified)
Yes

How about COCCOC(=O)N1C(=O)[C@@]2(c3cc(C#CCNC(N)=O)ccc31)[C@H](C(=O)NC[C@H](O)c1ccccc1)[C@H]1C(=O)O[C@H](c3ccccc3)[C@H](c3ccccc3)N1[C@@H]2c1ccc(O)cc1 ?
No

Same thing, different compound: C=CCC(OC(C)=O)[C@@H]1[C@@H](N(Cc2ccc(-c3cccc(C(F)(F)F)c3)o2)C(=O)c2ccc(-c3ccccc3)cc2)c2cc(OCCCO)ccc2N1C(=O)Cc1ccc(OC)cc1 (stereo partly specified)
Yes

Same lookup for C=CC[C@@H](OC(=O)Nc1ccc(SC)cc1)c1ccc(OCCO)cc1 , please.
No

###

- Test system: Human papillomavirus type 1a E7 protein (residues 1-88)
- assay protocol: HPV1a E7 small-molecule binders, primary screen, biochemical, small-molecule microarray, residues 1-88, 635 nm (AID 1129)
- measurement setup: small-molecule microarray binding, fluorescence 635 nm; higher = more signal
observed property: composite z-score
Lab note: record the figure alone, no unit after it.

Please review the entries below; each comes with its answer.
Could you tell me which composite z-score is on file for CN(C)CCCC[C@@H]1NC(=O)[C@@H]2C[C@H](C(=O)NCCCCCNC(=O)CS)[C@H](c3cccc(OCCO)c3)N2C1=O ?
0.05

Do the same for COc1ccc([Si](C)(C)[C@@H]2[C@@H](CCn3cc(CCO)nn3)O[C@]3(C(=O)N(Cc4ccc(N5C(=O)c6cccc7cccc5c67)cc4)c4ccccc43)[C@H]2C)cc1 please
0.914

For COCCOC(=O)N1C(=O)[C@@]2(c3cc(C#CCCO)ccc31)[C@H](c1ccccc1OCCO)N1[C@H](c3ccccc3)[C@H](c3ccccc3)OC(=O)[C@H]1[C@@H]2C(=O)NC[C@H](O)c1ccccc1 then?
0.907

Queued: COc1ccc(C#Cc2ccc3c(c2)[C@]2(C(=O)N3)[C@H](c3ccc(O)cc3)N3[C@H](c4ccccc4)[C@H](c4ccccc4)OC(=O)[C@H]3[C@@H]2C(=O)N2CCN(c3ncccn3)CC2)cc1
0.885

Also C=CC[C@@]1(C(=O)NCc2ccccc2)N=C(c2ccc(OCCCO)cc2)O[C@@H]1c1ccccc1 ?
1.16

More entries:
Given COc1c(C)cc(-c2cc3c(c(CCc4ccccc4)n2)[Si](C(C)C)(C(C)C)OC3)cc1C , state its recorded composite z-score.
0.654

Now this one: CCCCC(=C=CC[C@@H](O)c1ccc(OCCO)cc1)C[C@@H](O)c1cc(Cl)cc(Cl)c1O
0.597

Request: COCCOC(=O)N1C(=O)[C@@]2(c3cc(C#CCNC(N)=O)ccc31)[C@H](c1ccccc1OCCO)N1[C@H](c3ccccc3)[C@H](c3ccccc3)OC(=O)[C@H]1[C@@H]2C(=O)Nc1nc2ccccc2s1
0.965

Cool, now CC(C)C[C@@H]1NC(=O)[C@H]2C[C@@H](C(=O)NCCCC[N+](C)(C)C)[C@@H](c3cccc(OCCO)c3)N2C1=O
-0.146

Moving on to the next compound: Cc1ccc(S[C@]2(C(=O)NCCN3CCOCC3)CC(=O)N(Cc3cc(C(F)(F)F)cc(C(F)(F)F)c3)[C@@H]2c2ccc(CO)cc2)cc1
0.624

How about O=C1c2ccccc2[C@](Cc2ccccc2I)(C(=O)O)[C@H](c2ccc(CO)cc2)N1Cc1ccccc1Cl ?
1.19

Param item: NC(=O)NCC#Cc1ccc2c(c1)[C@]1(C(=O)N2)[C@H](c2ccc(OCCO)cc2)N2[C@H](c3ccccc3)[C@H](c3ccccc3)OC(=O)[C@H]2[C@@H]1C(=O)Nc1nc2ccccc2s1
0.123

Same question for C=C(COC)/C(=C/C[C@H](OC(C)=O)c1ccc(CO)o1)c1cnc2ccccc2c1 please.
1.17

###

- assay protocol: fission yeast growth modulation, primary screen, strain 972, OD600, 24 h, no modulator (AID 1090);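 further: basal condition with compound alone and no growth modifier present; test concentration not given here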
- measurement setup: S. pombe 972 growth, higher = more signal, called active from +8 up or from −8 down
Decision: z-score >= -1 yields 1 (yes), all other cases yield 0 (no).

Reported z-score at or above -1? C=CCN1C(=O)[C@]2(O[C@H](CCn3cc([C@H](O)c4ccccc4)nn3)[C@@H]([Si](C)(C)c3ccc(OC)cc3)[C@@H]2C)c2cc(N3CCOC3=O)ccc21
1 (yes)

How about O=C1O[C@H](c2ccccc2)[C@H](c2ccccc2)N2[C@H]1[C@@H](C(=O)NC[C@H](O)c1ccccc1)[C@]1(C(=O)Nc3ccc(C#CC4(O)CCCCCC4)cc31)[C@H]2c1ccc(O)cc1 ?
0 (no)

// query: [N-]=[N+]=NCc1ccccc1C[C@@]1(C(=O)NCc2ccccc2)N=C(c2ccc(OCCCO)cc2)O[C@@H]1c1ccccc1
1 (yes)

Same thing, different compound: C=C(/C(=C/C[C@H](OC(C)=O)c1cccc(OCCO)c1)c1cc(C(=O)OC)ccc1OC)C(C)C
0 (no)

Also need CN1C=C(C(=O)OCCS(C)(=O)=O)C(C(=O)OCCS(C)(=O)=O)=CC(CCCO)=CC1c1cccs1 (stereo unspecified) , thanks.
0 (no)

# ---- query compound ----
Reported z-score at or above -1? COC(=O)[C@@]1(CCC(=O)OC(C)(C)C)COC(c2ccc(OCCCO)cc2)=N1
1 (yes)

###

A collection of compounds and their measured composite z-score
- System: glycogen synthase kinase-3 (GSK3A per assay name; protocol says GSK3B)
- assay protocol: GSK3 binders on small-molecule microarrays, primary screen, biochemical, small-molecule microarray, 635 nm fluorescence, GSK3A (AID 1103); further: the record names both GSK3A and GSK3B
- measurement setup: small-molecule microarray binding, fluorescence 635 nm; higher = more signal
Enter a number only.

Completed entries (count: 2):
Param readout= composite z-score; system= glycogen synthase kinase-3 (GSK3A per assay name; protocol says GSK3B); entry= CC(C)C(CO)N1C(=O)[C@@H]2[C@H]3C(=O)OCC=C[C@H]3OC23C=CCN(Cc2ccccc2)C(=O)[C@@H]13 (stereo partly drawn) ; returns value.
-0.882

Field entry: O=C(NCc1ccccc1)[C@@H]1c2ccccc2C(=O)N(Cc2ccccc2Cl)[C@H]1c1ccc(CO)cc1
1.32

Further cases:
Identify the measured composite z-score of CC(C)C[C@@H]1NC(=O)[C@@]23C(=O)N[C@@H](Cc4ccccc4)C2[C@H](C)[C@@]2(C)O[C@H]2C3/C=C/C/C=C\CNC(=O)[C@H](Cc2ccccc2)NC1=O (stereo partly drawn) for glycogen synthase kinase-3 (GSK3A per assay name; protocol says GSK3B).
0.151

Param item: COC(=O)C(CC#Cc1ccc2c(c1)[C@]1(C(=O)N2)[C@H](C(N)=O)[C@H]2C(=O)O[C@H](c3ccccc3)[C@H](c3ccccc3)N2[C@@H]1c1ccc(O)cc1)C(=O)OC
-1.15

Please give the result for CCCCCCC#C[Si](O[C@H](c1ccccc1)c1cn(Cc2ccccc2)nn1)(C(C)C)C(C)C too.
0.305

###

- assay protocol: basal RPMI8226 mitochondrial membrane potential changes, profiling panel, cell-based, JC-1 fluorescence, 24 h, 100 nL compound (AID 1169); further: test concentration not given here
- measurement setup: RPMI8226 myeloma, JC-1 mitochondrial potential fluorescence, higher = more signal
// z-score lookup, one value per entry
Respond using a number only.

Study these solved cases before continuing.
Item O=C1c2ccccc2C(=O)c2cc([C@H]3Oc4ccccc4S(=O)(=O)N4CCC[C@@H]34)ccc21 has what recorded z-score?
0.103

And for CCCCC(=C=CC[C@@H](O)c1ccc(OCCO)cc1)C[C@@H](O)c1cc(Cl)cc(Cl)c1O ?
-0.0474

Then this compound: COCCCN1C(=O)[C@@]2(Cc3ccccc31)c1ccccc1C(=O)N(Cc1ccccc1Cl)[C@H]2c1ccc(CO)cc1
0.15

What about this compound? [N-]=[N+]=NCc1ccccc1C[C@]1(C(=O)NCc2ccccc2)N=C(c2ccc(OCCCO)cc2)O[C@H]1c1ccccc1
-0.819

Same again, this time with C=CCC1(CC=C)C[C@H]2CO[C@H](c3ccc(OC)cc3)N2C1=O
-0.245

Thanks! And COC(=O)C(CC#Cc1ccc2c(c1)[C@]1(C(=O)N2)[C@H](c2ccccc2OCCO)N2[C@H](c3ccccc3)[C@H](c3ccccc3)OC(=O)[C@H]2[C@@H]1C(=O)N1CCCCCCC1)C(=O)OC ?
-0.395

CC(C)(C)OC(=O)CC[C@@]1(C(=O)NCc2ccccc2)N=C(c2ccc(OCCCO)cc2)O[C@@H]1c1ccccc1CN=[N+]=[N-] ?
-1.12

Now try CCCNC(=O)[C@@H]1c2ccccc2C(=O)N(Cc2cc(C(F)(F)F)cc(C(F)(F)F)c2)[C@H]1c1ccc(CO)cc1 .
0.188

Here is the next compound: [N-]=[N+]=Nc1ccccc1[C@H]1OC(c2ccc(OCCCO)cc2)=N[C@@]1(Cc1ccccc1)C(N)=O
-1.05

Another compound: Cc1ccc(N2C(=O)c3ccccc3[C@](C)(C(=O)NCC(F)(F)F)[C@@H]2c2ccc(CO)cc2)nc1
0.54

More entries:
Give the measured z-score of COCCOC(=O)N1C(=O)[C@@]2(c3cc(C#CC4(O)CCCCCC4)ccc31)[C@H](C(=O)NC[C@H](O)c1ccccc1)[C@H]1C(=O)O[C@H](c3ccccc3)[C@H](c3ccccc3)N1[C@@H]2c1ccccc1OCCO .
-0.939

Let us now turn to CC(C)C(=C=CC[C@H](O)c1ccc(OCCO)cc1)C[C@H](O)COCc1ccccc1
-0.625

Likewise for COCCOC(=O)N1C(=O)[C@@]2(c3cc(C#CCNC(N)=O)ccc31)[C@H](c1ccccc1OCCO)N1[C@H](c3ccccc3)[C@H](c3ccccc3)OC(=O)[C@H]1[C@@H]2C(=O)Nc1nc2ccccc2s1 ?
-1.06
